Tested on: DeltatarO mutant
experimental.protocol: S. aureus survival, RN4220 and DeltatarO strains – OD600, teichoic acid synthesis inhibitors, primary screen (AID 463173)
run.conditions: S. aureus RN4220 wild type/DeltatarO growth, OD600, 18 h, screened at 18.75 µg/mL (by protocol)
In all, about 52,000 compounds went through this assay and about 4,300 (8.3%) were called active. No stated cut-off is given here; in the data, active means survival mostly below about 52% (no sharp cut-off); inactive means mostly above about 56%. This is one part of a sample in which actives are shown more often than they occur.
Answer with one of the outcomes given here: class 1 = active, class 0 = inactive

{"compound": "CC1=C(c2ccc(C)c(C)c2)S(=O)(=O)N=C1N1CCC(C(=O)N2CCC(C(N)=O)CC2)CC1", "label": "class 1"}

Task: Answer briefly: the call reported for CC1=C(c2ccc(C(C)C)cc2)S(=O)(=O)N=C1N1CCC(C(=O)NCc2ccc(C)o2)CC1 in this assay.
Result: class 0

Task: Answer briefly: the call reported for COc1cc(OC)c(NC(=O)CC(c2cccs2)N2Cc3ccccc3C2=O)cc1Cl (stereo unspecified) in this assay.
Result: class 0

Task: Answer briefly: the call reported for COc1ccccc1C(=O)OCc1cc(=O)n2nc(C3CCCCC3)sc2n1 in this assay.
Result: class 0

Task: Answer briefly: the call reported for Cc1ccc(CNC(=O)C(C(C)C)N2Cc3ccccc3C2=O)cc1 (stereo unspecified) in this assay.
Result: class 0

Task: Answer briefly: the call reported for O=C(c1ccccc1)n1nc(-c2ccco2)nc1NCc1ccccc1Cl in this assay.
Result: class 0

* * *

Measured survival by item
System: DeltatarO mutant
experimental.protocol: S. aureus survival, RN4220 and DeltatarO strains – OD600, teichoic acid synthesis inhibitors, primary screen (AID 463173)
run.conditions: S. aureus RN4220 wild type/DeltatarO growth, OD600, 18 h, stronger effect = lower value, screened at 18.75 µg/mL (by protocol)
Among all 52,000 compounds or so, about 4,300 (8.3%) were called active. Many of the other results were omitted from the sample, so actives are more common in it than they were.
Hi! Could you send only the number? It should be in %, unit omitted.

Known survival results, listed for orientation:
{"cpd.smiles": "Cc1ccc(S(=O)(=O)N(C#N)c2nc(C)cc(C)n2)cc1", "assay.metric": "survival", "units.text": "%", "observed.measurement": 71}
{"cpd.smiles": "O=c1oc2ccccc2cc1-c1cn2cc(Cc3ccc(F)cc3)sc2n1", "assay.metric": "survival", "units.text": "%", "observed.measurement": 128}
{"cpd.smiles": "CCCC(=O)C1=C(c2cccc(OC)c2)N(C(=O)CCC)n2c(C)nnc2S1", "assay.metric": "survival", "units.text": "%", "observed.measurement": 85}
{"cpd.smiles": "O=c1oc2ccccc2cc1-c1cn2cc(Cc3cc(Cl)ccc3Cl)sc2n1", "assay.metric": "survival", "units.text": "%", "observed.measurement": 52}

Now, please, on to the next compound.
// survival lookup, compound = COC(=O)c1ccccc1NC(=O)c1cc2c(-c3ccc(OC)c(OC)c3)nn(C)c2s1 , result: 97

* * *

Tested on: DeltatarO mutant
experimental.protocol: S. aureus survival, RN4220 and DeltatarO strains – OD600, teichoic acid synthesis inhibitors, primary screen (AID 463173)
run.conditions: S. aureus RN4220 wild type/DeltatarO growth, OD600, 18 h, stronger effect = lower value, screened at 18.75 µg/mL (by protocol)
Hit rate of the full screen: of about 52,000 compounds, about 4,300 (8.3%) were called active. The entries come from a sample that favours actives as a whole.
survival strictly less than 80% = t. Otherwise f.

{"cpd.smiles": "Cc1ccc(NC(=O)CN2C(=O)c3ccccc3Sc3ccc(C(=O)N4CCOCC4)cc32)c(Cl)c1", "label": "t"}

Task: Please determine if CC(=O)c1ccc(S(=O)(=O)Nc2ccc(-c3cn4c(C)csc4n3)cc2)cc1 is below 80% in terms of survival.
Result: t

Task: Please determine if Clc1ccccc1OCCSc1nnc(-c2cccs2)o1 is below 80% in terms of survival.
Result: t

Task: Please determine if Cc1ccccc1OCCSc1nnc(-c2cccs2)o1 is below 80% in terms of survival.
Result: f

Task: Please determine if CCc1ccc(NC(=O)CN2C(=O)c3ccccc3Sc3ccc(C(=O)N4CCCC4)cc32)cc1 is below 80% in terms of survival.
Result: f

Task: Please determine if CCOc1ccc(CCNC(=O)c2cc3sc(CC)cc3n2C)cc1OCC is below 80% in terms of survival.
Result: t

Task: Please determine if Cc1cccc(OCCSc2nnc(-c3cccs3)o2)c1 is below 80% in terms of survival.
Result: t

Task: Please determine if Cc1ccc(-c2cc(-c3ccccc3)nc(N3CCCC3)n2)cc1 is below 80% in terms of survival.
Result: f

Task: Please determine if CCCCNC(=O)CSc1nc2cc3c(cc2c(=O)n1Cc1ccc(C(=O)NCCc2ccc(OC)c(OC)c2)cc1)OCO3 is below 80% in terms of survival.
Result: f

* * *

Tested on: DeltatarO mutant
experimental.protocol: S. aureus survival, RN4220 and DeltatarO strains – OD600, teichoic acid synthesis inhibitors, primary screen (AID 463173)
run.conditions: S. aureus RN4220 wild type/DeltatarO growth, OD600, 18 h, screened at 18.75 µg/mL (by protocol)
Out of some 52,000 compounds screened, about 4,300 (8.3%) were called active. Cut-off read from the data, not from the text of the source: active = survival mostly below about 52% (no sharp cut-off); inactive = mostly above about 56%. This excerpt belongs to a sample that is enriched for actives.
Answer with one of the outcomes given here: y (active), n (inactive)

{"compound": "Cc1cc2oc(C(=O)Nc3cccc(-c4nc5ccccc5o4)c3)c(C)c2cc1Cl", "label": "n"}
{"compound": "COc1cccc(NC(=O)c2sc3nc(C)c(C(=O)Nc4ccc(C)cc4C)c(-c4ccco4)c3c2N)c1", "label": "n"}
{"compound": "O=C(CSc1cn(CC(=O)N2CCOCC2)c2ccccc12)Nc1ccccc1C(F)(F)F", "label": "n"}
{"compound": "COC(=O)c1ccc(Cn2nnc3c(=O)[nH]c(C4CCCN(S(=O)(=O)c5ccccc5Cl)C4)nc32)cc1 (stereo not drawn)", "label": "n"}
{"compound": "COc1ccc(N2CCN(S(=O)(=O)CCNC(=O)c3ccc(OC(C)C)cc3)CC2)cc1", "label": "n"}
{"compound": "O=C(NCc1ccccc1Cl)c1c2c(nc3ccccc13)C(=O)N(C1CCCCC1)C2", "label": "n"}

Task: Answer briefly: the call reported for COc1cccc(NC(=O)c2sc3nc(C)c(C(=O)Nc4ccc(C)cc4C)c(-c4ccc(C)o4)c3c2N)c1 in this assay.
Result: y

Task: Answer briefly: the call reported for COc1ccccc1OC(C)C(=O)Nc1cccc(-c2nc3ccccc3o2)c1 (stereo not drawn) in this assay.
Result: y

* * *

Measured survival by item
System: DeltatarO mutant
experimental.protocol: S. aureus survival, RN4220 and DeltatarO strains – OD600, teichoic acid synthesis inhibitors, primary screen (AID 463173)
run.conditions: S. aureus RN4220 wild type/DeltatarO growth, OD600, 18 h, stronger effect = lower value, screened at 18.75 µg/mL (by protocol)
Among all 52,000 compounds or so, about 4,300 (8.3%) were called active. For the sample, actives were picked, then their nearest neighbours and some compounds at random.
Hi! Could you send only the number? It should be in %, unit omitted.

Known survival results, listed for orientation:
{"molecule": "O=C(NC12CC3CC(CC(C3)C1)C2)c1cncc(O)c1", "survival / %": 90}
{"molecule": "Cc1ccc2nc(NC(=O)c3ccc(S(=O)(=O)N4CCC(C)CC4)cc3)sc2c1", "survival / %": 93}
{"molecule": "CCn1c(SCc2cccc(Br)c2)nnc1-c1nonc1NC(C)=O", "survival / %": 108}

// survival lookup, molecule = COc1ccc(C2=Nc3ccc(OC(F)(F)F)cc3NC(c3cccnc3)=N2)cc1 , result: 67

// survival lookup, molecule = CCc1[nH]nc2c1C1(C(=O)N(CC)c3ccccc31)C(C#N)=C(N)O2 (stereo not given) , result: 78

* * *

Test system: DeltatarO mutant
experimental.protocol: S. aureus survival, RN4220 and DeltatarO strains – OD600, teichoic acid synthesis inhibitors, primary screen (AID 463173)
run.conditions: S. aureus RN4220 wild type/DeltatarO growth, OD600, 18 h, stronger effect = lower value, screened at 18.75 µg/mL (by protocol)
In all, about 52,000 compounds went through this assay and about 4,300 (8.3%) were called active. For the sample, actives were picked, then their nearest neighbours and some compounds at random.
survival strictly less than 80% = TRUE. Otherwise FALSE.

Reference set, count: 4
{"molecule": "COc1ccccc1N1CCN(C(=O)c2cc3c(-c4ccccc4F)nn(C)c3s2)CC1", "label": "TRUE"}
{"molecule": "CCc1ccc(C2c3c(-c4ccccc4)n[nH]c3C(=O)N2c2ccc(C(=O)O)cc2)cc1 (centres undefined)", "label": "TRUE"}
{"molecule": "COc1ccc(CNC(=O)c2oc3c(c2C)-c2nn(Cc4ccccc4Cl)cc2CC3)cc1", "label": "FALSE"}
{"molecule": "O=C(O)c1ccc(N2C(=O)c3[nH]nc(-c4ccccc4)c3C2c2cccc(F)c2)cc1 (centres undefined)", "label": "FALSE"}

Task: Please determine if CN(C)c1ccc(C(CNS(=O)(=O)c2ccc(F)cc2F)N2CCOCC2)cc1 (centres undefined) is below 80% in terms of survival.
Result: TRUE

Task: Please determine if COc1ccc(-c2nn(C)c3sc(C(=O)N4CCN(c5cccc(C)c5C)CC4)cc23)cc1OC is below 80% in terms of survival.
Result: TRUE

Task: Please determine if Cc1cccc(Nc2cc(C)nc3nc(Cc4ccc(Cl)cc4)nn23)c1 is below 80% in terms of survival.
Result: TRUE

Task: Please determine if Cc1c(C(=O)NCCN(C)C)sc2nc3n(c(=O)c12)CCC3 is below 80% in terms of survival.
Result: FALSE
